- System: RARb homodimer (NR concentration 270 nM)
- methodDescription: PBM binding z-score (relative to random genomic background probes); higher = stronger binding; sequences stand for … in GC…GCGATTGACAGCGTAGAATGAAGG
We begin with a simple list: items and their reported PBM binding z-score.
Answer with the value's number alone.

Please review the entries below; each comes with its answer.
Qu. I have this sequence here, GATACTGGGTCAAGGCCAGAGTACGCGTATTGAT , and I need its recorded PBM binding z-score.
Ans. 2.91

Qu. Repeat for the following sequence: CCGATTAGGTTATGGGGCATTCAGGCAACGGTGA
Ans. 1.11

Others:
Qu. I have this sequence here, AATACATGGTCATCGTAGGCCAGAGTACGCACAG , and I need its recorded PBM binding z-score.
Ans. 0.899

Qu. Repeat for the following sequence: TGATATAGGTAAAAGGTGAAAGTCGGTGTGGTAA
Ans. 2.03

Qu. Repeat for the following sequence: CCTCGTTGGTCAAGGTCACACACGCTATAGGTAC
Ans. 4.51

Qu. Repeat for the following sequence: TCTATTAGTTGATTAGGGCTACCGAAACAGCGGA
Ans. -0.115

Qu. Repeat for the following sequence: TCTTGTAGATCAATAGAGGTTACGAAAGTGCGCT
Ans. 1.7

Qu. Repeat for the following sequence: CCAGACAGGTGAGAAGGTAACTCATCCTCGATTA
Ans. 0.437

Qu. Repeat for the following sequence: GCTCGGAGGACAAGGTTAGAGCTTTGTCCGTAGA
Ans. 0.733

Qu. Repeat for the following sequence: GGGACTGGGGCAAAGCAGGTTACCATAAGGTTGG
Ans. 1.75

Qu. Repeat for the following sequence: TTAATGAGGTTAAAGATCAGGGAACGTGGCGTCG
Ans. 0.917

Qu. Repeat for the following sequence: AATACAGGGTCACTAGTCCAGAGTAGGTACGAAT
Ans. 3.23

###

- Test system: PPARg DBDmut IVT, anti-PPARg (DBD mutation: PPARg1 K132A/R137A, NR concentration 270 nM)
- methodDescription: PBM binding z-score (relative to random genomic background probes); higher = stronger binding; sequences stand for … in GC…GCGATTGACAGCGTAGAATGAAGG
We begin with a simple list: items and their reported PBM binding z-score.
Answer with the value's number alone.

Please review the entries below; each comes with its answer.
Qu. I have this sequence here, ATCGAAAGGTCGAGGTGACTATAGAGAAAGGGAA , and I need its recorded PBM binding z-score.
Ans. 0.771

Qu. Repeat for the following sequence: CCTACTGGGCCAGTCAGAGGTCATTGATCATATG
Ans. -0.399

Qu. Repeat for the following sequence: CGAACTAGGTCATTGACAGGACAGTGACTAGTAA
Ans. 1.38

Turning now to a further sequence:
Qu. I have this sequence here, CCTCAGAGGACAACAGGAGGTCAGAGCTGCCAGA , and I need its recorded PBM binding z-score.
Ans. -1.85

###

We begin with a simple list: items and their reported PBM binding z-score.
- System: PPARg:RXRa 30nM:10nM, anti-RXR (NR concentration 30 nM, RXRa partner concentration 10 nM)
- methodDescription: PBM binding z-score (relative to random genomic background probes); higher = stronger binding; sequences stand for … in GC…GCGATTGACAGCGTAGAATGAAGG
Answer with the value's number alone.

Please review the entries below; each comes with its answer.
Qu. I have this sequence here, GCTGCTAGGTCAACTGACGGTCAGCTAAAGCTCG , and I need its recorded PBM binding z-score.
Ans. 0.824

Qu. Repeat for the following sequence: TCAGACAGGTGAAGGTAAATCAGGTACGCAGTCG
Ans. 4.45

Qu. Repeat for the following sequence: CCGACTGGGGCAGAAAGGTCACCATACCATCCGG
Ans. 3.05

Qu. Repeat for the following sequence: CCTACTGGGCAATCAGGTCATTGATATCAACGTT
Ans. 0.371

Qu. Repeat for the following sequence: TCTATTAGTTGATTAGGGCCACCGAAACAGCGGA
Ans. 3.63

Others:
Qu. I have this sequence here, ATGTGTAGGTTAAGGGTCATTCAGGTTGGTTCGC , and I need its recorded PBM binding z-score.
Ans. 9.74

Qu. Repeat for the following sequence: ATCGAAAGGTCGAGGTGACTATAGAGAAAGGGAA
Ans. 1.66

Qu. Repeat for the following sequence: TCTATTAGTTGAAGGGCAACCCACGAGTCCGTTT
Ans. 3.83

Qu. Repeat for the following sequence: TCTAGTTGGTCACGGAGGCCACACACGACGGGTA
Ans. 3.1

Qu. Repeat for the following sequence: TCTTGTAGATCAATAGAGGTTATGAAAGTGCGCT
Ans. 2.99

Qu. Repeat for the following sequence: CCTACTGGGCCAGCAGGTCATTGATATCAACGTT
Ans. 1.09

Qu. Repeat for the following sequence: GCTCGAAGGACAAGGTCAGAGCTTTGTCCGTAGA
Ans. -0.296
